Hello, the source for this data is patent KR20130126543A, in case you need it.

target.or.test.system: T1, IL-6R-Fc 항원 (human, UniProt P08887 20-365, limits assumed)
T1 construct: domain: IL-6R full domain; Made in-house as IL-6R-Fc; also called IL-6R full; IL-6R full domain인 단백질; not shown: Fc part (vector pYK 604)
T1 sequence (looked up): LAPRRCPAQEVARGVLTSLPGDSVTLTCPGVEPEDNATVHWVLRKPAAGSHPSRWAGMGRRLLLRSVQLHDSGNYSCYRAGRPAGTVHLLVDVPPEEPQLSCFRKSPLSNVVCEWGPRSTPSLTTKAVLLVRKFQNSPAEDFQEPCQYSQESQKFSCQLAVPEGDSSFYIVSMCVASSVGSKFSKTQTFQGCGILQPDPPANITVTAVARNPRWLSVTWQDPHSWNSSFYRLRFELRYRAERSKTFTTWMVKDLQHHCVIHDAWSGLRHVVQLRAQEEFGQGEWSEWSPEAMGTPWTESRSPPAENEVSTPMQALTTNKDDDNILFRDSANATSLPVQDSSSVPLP
protocol.summary: ELISA; IL-6R coated 100 ng/well; IgG at 50 nM; anti-Fab-HRP
Let's look at some binders and their measured OD 490 nm.
Express the result in OD490 but write the number alone.

Before answering, review these 3 worked examples.
- binder: "항 IL-6R 단클론 항체 D2 (antibody, V domains shown) VH: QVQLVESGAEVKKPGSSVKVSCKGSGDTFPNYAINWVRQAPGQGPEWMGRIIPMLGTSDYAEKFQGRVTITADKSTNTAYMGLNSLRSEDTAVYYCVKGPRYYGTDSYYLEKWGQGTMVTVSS VL: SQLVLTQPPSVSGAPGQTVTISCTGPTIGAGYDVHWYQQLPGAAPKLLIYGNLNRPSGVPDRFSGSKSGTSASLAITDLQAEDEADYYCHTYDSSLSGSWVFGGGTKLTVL"
  OD 490 nm, OD490: 2.38
- binder: "항 IL-6R 단클론 항체 F2 (antibody, V domains shown) VH: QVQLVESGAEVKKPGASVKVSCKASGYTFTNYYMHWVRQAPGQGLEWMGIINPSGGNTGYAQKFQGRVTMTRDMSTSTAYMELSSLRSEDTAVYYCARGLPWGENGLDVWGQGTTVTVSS VL: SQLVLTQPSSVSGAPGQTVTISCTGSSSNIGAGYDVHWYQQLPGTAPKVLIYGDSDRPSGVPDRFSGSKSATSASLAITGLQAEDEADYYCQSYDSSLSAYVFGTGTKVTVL"
  OD 490 nm, OD490: 2.99
- binder: "항 IL-6R 단클론 항체 B10 (antibody, V domains shown) VH: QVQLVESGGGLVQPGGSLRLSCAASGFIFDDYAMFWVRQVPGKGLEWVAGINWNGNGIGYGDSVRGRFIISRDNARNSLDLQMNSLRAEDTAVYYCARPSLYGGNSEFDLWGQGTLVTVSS VL: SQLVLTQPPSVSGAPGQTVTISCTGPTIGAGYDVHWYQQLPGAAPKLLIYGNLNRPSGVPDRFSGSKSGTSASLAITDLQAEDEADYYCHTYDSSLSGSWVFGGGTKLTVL"
  OD 490 nm, OD490: 2.09

Now turn to the next binder.
GET /values?readout=OD 490 nm&item= 항 IL-6R 단클론 항체 A7 (antibody, V domains shown) VH: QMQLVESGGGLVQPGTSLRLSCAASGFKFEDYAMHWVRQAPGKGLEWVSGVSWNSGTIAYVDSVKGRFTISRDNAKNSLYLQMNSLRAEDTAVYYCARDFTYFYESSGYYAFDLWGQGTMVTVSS VL: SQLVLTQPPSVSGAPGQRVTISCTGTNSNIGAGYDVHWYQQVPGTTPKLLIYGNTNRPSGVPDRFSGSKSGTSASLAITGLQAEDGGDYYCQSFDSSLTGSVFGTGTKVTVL
3.1
